The origin of these recorded values is ChEMBL document CHEMBL1141169.

- TARGET OF ASSAY: 5-hydroxytryptamine receptor 6 (Homo sapiens)
- Sequence (P50406 whole entry): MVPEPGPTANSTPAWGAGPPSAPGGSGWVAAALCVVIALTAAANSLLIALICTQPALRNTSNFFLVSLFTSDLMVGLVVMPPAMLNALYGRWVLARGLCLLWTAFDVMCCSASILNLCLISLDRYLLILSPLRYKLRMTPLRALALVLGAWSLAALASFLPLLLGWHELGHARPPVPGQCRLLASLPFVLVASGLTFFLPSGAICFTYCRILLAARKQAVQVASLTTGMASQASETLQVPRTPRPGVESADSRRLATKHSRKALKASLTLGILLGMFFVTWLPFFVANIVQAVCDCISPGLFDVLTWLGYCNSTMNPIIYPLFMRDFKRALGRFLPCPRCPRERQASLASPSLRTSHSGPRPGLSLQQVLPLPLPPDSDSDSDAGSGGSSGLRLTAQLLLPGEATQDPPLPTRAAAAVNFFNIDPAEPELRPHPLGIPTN
- PROCEDURE TEXT: Inhibition of 5-HT stimulated cAMP production in HeLa cells expressing human 5-hydroxytryptamine 6 receptor
Can you tell me pIC50 for the items I'm about to list?
Numbers only, as −log10 of the molar value.

Below: 2 compounds and their reported pIC50.
>  <SMILES RECORD>
CN1CCC[C@H]1Cc1c[nH]c2ccc(NS(=O)(=O)c3ccc(C(F)(F)F)cc3)cc12

>  <VALUE MEASURED>
7.67

$$$$
>  <SMILES RECORD>
CC(C)c1ccc(S(=O)(=O)Nc2ccc3[nH]cc(C[C@@H]4CCCN4C)c3c2)cc1

>  <VALUE MEASURED>
7.68

$$$$

Turning to the following compound.
Problem: Need pIC50 of "CN1CCC[C@H]1Cc1c[nH]c2ccc(NS(=O)(=O)c3ccccc3Br)cc12" , thanks.
Result: 9.10
